B1: Twister Ribozyme (parent)
chain: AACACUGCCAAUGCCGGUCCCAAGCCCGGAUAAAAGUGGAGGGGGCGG

Variants of: B1
assay overview: self-cleavage, relative activity (ratio to wild type); higher = more cleavage; co-transcriptional
Mark 1.0 for reported self-cleavage of 0.2 or greater; mark 0.0 for anything smaller.

U31G G36A = 1.0
U6C U37C = 0.0
A1C A11C = 0.0
A30U G42C = 1.0
C9A C27U = 1.0
G17A A40U = 0.0
G24A C46G = 0.0
C21G G24C = 0.0

# ---- query variant ----
Answer whether self-cleavage of C14A C20U is greater than or equal to 0.2.
1.0
